This listing pairs compounds with measured inhibition of growth at 10 µM.
test: Growth inhibition of human HCC2998 cells at 10 uM after 48 hrs by SRB assay; format: functional; conditions: HCC 2998, 48 h, read-out: GI

CHEMICAL STRING: O=c1c2cccc3c(NCCO)ccc(c32)c2nc3ccccc3n12
UNITS OF MEASURE: %
LT GT EQ: <
inhibition of growth at 10 µM: 20

CHEMICAL STRING: O=c1c2cccc3c(N4CCOCC4)ccc(c32)c2nc3ccccc3n12
UNITS OF MEASURE: %
LT GT EQ: =
inhibition of growth at 10 µM: 26.8

CHEMICAL STRING: O=c1c2cccc3c(Nc4ccc(F)cc4)ccc(c32)c2nc3ccccc3n12
UNITS OF MEASURE: %
LT GT EQ: =
inhibition of growth at 10 µM: 23.9

CHEMICAL STRING: O=c1c2cccc3c(NC4CCCCC4)ccc(c32)c2nc3ccccc3n12
UNITS OF MEASURE: %
LT GT EQ: =
inhibition of growth at 10 µM: 48.3

CHEMICAL STRING: O=c1c2cccc3c(Nc4ccccn4)ccc(c32)c2nc3ccccc3n12
UNITS OF MEASURE: %
LT GT EQ: =
inhibition of growth at 10 µM: 31.5

CHEMICAL STRING: CCCCNc1ccc2c3c1cccc3c(=O)n1c3ccccc3nc21
UNITS OF MEASURE: %
LT GT EQ: =
inhibition of growth at 10 µM: 26

CHEMICAL STRING: O=c1c2cccc3c(Nc4c(F)cccc4F)ccc(c32)c2nc3ccccc3n12
UNITS OF MEASURE: %
LT GT EQ: =
inhibition of growth at 10 µM: 27.3

CHEMICAL STRING: Nc1ccc(Sc2ccc3c4c2cccc4c(=O)n2c4ccccc4nc32)cc1
UNITS OF MEASURE: %
LT GT EQ: <
inhibition of growth at 10 µM: 20

CHEMICAL STRING: O=c1c2cccc3c(Nc4ccc(Br)cn4)ccc(c32)c2nc3ccccc3n12
UNITS OF MEASURE: %
LT GT EQ: =
inhibition of growth at 10 µM: 25.2

CHEMICAL STRING: O=c1c2cccc3c(N4CCCC4)ccc(c32)c2nc3ccccc3n12
UNITS OF MEASURE: %
LT GT EQ: =
inhibition of growth at 10 µM: 29.6
